# credit: ChEMBL document CHEMBL4373746

experiment: Fraction unbound in Wistar Han rat brain at 2 uM incubated for 6 hrs by equilibrium dialysis method
ASSAY_ENDPOINT: fraction unbound at 6 h, 2 µM

Give a short answer stating reported fraction unbound at 6 h, 2 µM for Cn1ncc(-c2ccc(C(=O)N(c3ncccc3Cl)[C@@H]3CCCNC3)cc2)c1C(=O)O .
1

I: COc1ccc2ncc(F)c([C@@H](O)CC[C@@H]3CCN(CCSc4cccs4)C[C@@H]3C(=O)O)c2c1
II: CN(C)C(=O)c1cc(CC(=O)O)ccc1NC(=O)c1ccccc1-c1ccc(C(F)(F)F)cc1
Consider entries I and II . Which has the numerically lower fraction unbound at 6 h, 2 µM? Mark your answer with the label of the selected entry.
I
(I: 0.0945, II: 0.183)

----------
assay: Fraction unbound in Wistar Han rat brain at 2 uM incubated for 6 hrs by equilibrium dialysis method
ASSAY_ENDPOINT: fraction unbound at 6 h, 2 µM

Given the compound COc1cc2c(OC[C@H]3NC(=O)[C@@H]4C[C@]34C)nccc2cc1C(N)=O , write its reported fraction unbound at 6 h, 2 µM.
0.294

Input CN1CC[C@H](c2c(O)cc(O)c3c(=O)cc(-c4ccccc4Cl)oc23)[C@H](O)C1 , output reported fraction unbound at 6 h, 2 µM.
0.0442

Identify measured fraction unbound at 6 h, 2 µM associated with Cc1c(C(=O)O)cnn1-c1nc(-c2cccc(C(F)(F)F)c2)cs1
0.00498

1: NC(=O)c1c(-c2ccc(Oc3ccc(Cl)cc3)cc2)nn([C@@H]2CCCN(C(=O)/C=C/CO)C2)c1N
2: O=C(NC1CC1)c1nc2cccnn2c1-c1ccc2ncnn2c1
Between 1 and 2 , whose recorded fraction unbound at 6 h, 2 µM is greater? // return label of chosen record
2
(2: 0.886, 1: 0.00529)

----------
assay: Drug concentration in total skeletal muscle in Wistar Han rat at 1 to 2 mg/kg, iv infused for 10 to 20 hrs by LC-MS/MS analysis; details: in vivo
ASSAY_ENDPOINT: Ct (ng/mL)

Provide Ct value for the following compound: CS(=O)(=O)c1cccc(C(=O)O)c1
14

1: Cn1cnc(-c2ccc(O[C@H]3CCN(C(=O)Cc4ccc(OC(F)(F)F)cc4)C[C@@H]3F)c(C(N)=O)c2)c1
2: Cc1ccc(CC(C)(C)NC[C@@H](O)CO[C@H](C)c2ccccc2-c2ccc(C(=O)O)c(C)c2)cc1F
Between 1 and 2 , which one has the lower reported Ct value? Choose, then provide that item's label.
2
(2: 17 ng/mL, 1: 69 ng/mL)

----------
assay: Unbound tissue partition coefficient, ratio of drug level in skeletal muscle to plasma in Wistar Han rat at 1 to 2 mg/kg, iv infused for 10 to 20 hrs by LC-MS/MS analysis; details: skeletal muscle/plasma
ASSAY_ENDPOINT: Kp uu

Example entries and their recorded answers appear below.
State, in one line, measured Kp uu of COc1cc2c(OC[C@H]3NC(=O)[C@@H]4C[C@]34C)nccc2cc1C(N)=O
0.8

Return reported Kp uu. Input compound: CC(C)(CC1Cc2ccccc2C1)NC[C@@H](O)COc1cc(C2CC3CC2C2C(C(=O)O)C32)ccc1C#N (stereo partly drawn)
0.08

Give the reported Kp uu for this compound. O=C(NC(c1ccccc1)c1ccccc1)C1CC1
0.68

Please list Kp uu recorded for the compound O=C(O)C(=O)Nc1ccc(NC(=O)[C@H](CC2CCCC2)n2cnc(C(F)(F)F)c2)nc1
0.02

Identify measured Kp uu corresponding to CCCC(Oc1ccc(-n2cc3ccccc3n2)cc1)c1ccc(C(=O)NCCC(=O)O)cc1 (stereo not drawn)
0.38

1: COCCCN1C[C@H](C)N(C(=O)N2Cc3c(NC(=O)c4ccccn4)n[nH]c3C2(C)C)C[C@H]1C
2: CO[C@@H]1C[C@H](C(=O)Nc2ccc(-n3cc(Cl)ccc3=O)cc2F)N(C(=O)Nc2ccc(Cl)cc2)C1
// which entry has the larger Kp uu value, 1 or 2 ? Give the label of your selection.
2

P: O=C(O)c1c[nH]c2cc(Cl)c(-c3ccc(CC(=O)N4CCOCC4)cc3)cc12
Q: COc1ccc2ncc(F)c([C@@H](O)CC[C@@H]3CCN(CCSc4cccs4)C[C@@H]3C(=O)O)c2c1
R: O=C(O)c1nc2cc(Cl)c(Cl)cc2nc1O
Arrange these compounds by their Kp uu, starting with the largest number. Reply with the labels, ordered as the question asks.
R, Q, P
(R: 1.1, Q: 0.29, P: 0.16)

I: CCC[C@H](Oc1cc(C)c(-n2cc(C(F)(F)F)cn2)c(C)c1)c1ccc(C(=O)NCCC(=O)O)cc1
II: Nc1noc2ccc(-c3cc(Cl)ccc3Oc3cc(F)c(S(=O)(=O)Nc4cscn4)cc3F)cc12
III: Cn1ncc(-c2ccc(C(=O)N(c3ncccc3Cl)[C@@H]3CCCNC3)cc2)c1C(=O)O
Output the entries ranked by Kp uu from maximum down to minimum. Thanks in advance for listing the labels in the requested order.
II, I, III

1: CC(C)n1ncc2c1C(=O)CC1(CCN(C(=O)c3ccc4[nH]nc(C(N)=O)c4c3)CC1)C2
2: C[C@H]1COCCN1c1nc(-c2cnc(N)nc2)c2c(n1)N([C@@]1(C)CCN(C(=O)C(C)(C)N)C1)CC2
3: Cc1ccc(NC(=O)c2cc(Oc3ccc(S(C)(=O)=O)cc3)c3c(c2)OC(C)(C)C3)nc1
4: O=C(O)[C@@H]1CCCN(C(=O)n2cnc(-c3ccc(-c4cnc(N5CCOCC5)nc4)cc3)n2)[C@H]1c1ccccc1
Order by Kp uu, ascending. Could you list the labels in the order requested?
3, 4, 1, 2

----------
experiment: Fraction unbound in Wistar Han rat skeletal muscle at 2 uM incubated for 6 hrs by equilibrium dialysis method
ASSAY_ENDPOINT: fraction unbound at 6 h, 2 µM

Some compounds with known fraction unbound at 6 h, 2 µM results, for comparison:
Give reported fraction unbound at 6 h, 2 µM value for C[C@H]1C[C@H]2CSC(N)=N[C@@]2(c2cc(C#N)ccc2F)CO1
0.344

# return recorded fraction unbound at 6 h, 2 µM for entry C[C@H]1c2cccc(CCC(C)(C)O)c2C[C@H](CO)N1C(=O)Cc1c(Cl)cccc1Cl
0.0161

Specify fraction unbound at 6 h, 2 µM for O=C(O)c1nc2cc(Cl)c(Cl)cc2nc1O and stop.
0.435

# return recorded fraction unbound at 6 h, 2 µM for entry Cn1ncc(-c2ccc(C(=O)N(c3ncccc3Cl)[C@@H]3CCCNC3)cc2)c1C(=O)O
0.595

// fetch fraction unbound at 6 h, 2 µM given entry NC(=O)c1c(-c2ccc(Oc3ccc(Cl)cc3)cc2)nn([C@@H]2CCCN(C(=O)/C=C/CO)C2)c1N
0.0154

P: CC(C)n1ncc2c1C(=O)CC1(CCN(C(=O)c3ccc4[nH]nc(C(N)=O)c4c3)CC1)C2
Q: O=C(O)[C@@H]1CCCN(C(=O)n2cnc(-c3ccc(-c4cnc(N5CCOCC5)nc4)cc3)n2)[C@H]1c1ccccc1
R: COc1ccc(-c2cc3c(S(=O)(=O)O)c[nH]c3cc2Cl)cc1
S: CC(C)(CC1Cc2ccccc2C1)NC[C@@H](O)COc1cc(C2CC3CC2C2C(C(=O)O)C32)ccc1C#N (stereo partly drawn)
T: CO[C@@H]1C[C@H](C(=O)Nc2ccc(-n3cc(Cl)ccc3=O)cc2F)N(C(=O)Nc2ccc(Cl)cc2)C1
Which order do these items take when sorted by rising fraction unbound at 6 h, 2 µM? List them. When ranking, write the labels in the order the request describes.
S, Q, R, T, P
(S: 0.00211, Q: 0.00554, R: 0.0546, T: 0.0842, P: 0.172)

----------
experiment: Fraction unbound in Wistar Han rat heart at 2 uM incubated for 6 hrs by equilibrium dialysis method
ASSAY_ENDPOINT: fraction unbound at 6 h, 2 µM

# example entries with known answers
State its fraction unbound at 6 h, 2 µM for this molecule: Cc1ccc(CC(C)(C)NC[C@@H](O)CO[C@H](C)c2ccccc2-c2ccc(C(=O)O)c(C)c2)cc1F
0.0129

Specify reported fraction unbound at 6 h, 2 µM for the molecule shown: Oc1noc2cc(Cl)c(Cl)cc12
0.13

Fill in fraction unbound at 6 h, 2 µM for record Cc1nc([C@@H]2CCOC2)c2c(N3CCc4c(c(C5CC5)nn4C)C3)ncnn12
0.171

Identify measured fraction unbound at 6 h, 2 µM associated with CN1CC[C@H](c2c(O)cc(O)c3c(=O)cc(-c4ccccc4Cl)oc23)[C@H](O)C1
0.0624

Could you please provide reported fraction unbound at 6 h, 2 µM for O=C(O)[C@@H]1CCCN(C(=O)n2cnc(-c3ccc(-c4cnc(N5CCOCC5)nc4)cc3)n2)[C@H]1c1ccccc1 ? Thanks!
0.00542

I: CCCn1cnc(C[C@H](CCCN)C(=O)O)c1
II: C[C@H]1COCCN1c1nc(-c2cnc(N)nc2)c2c(n1)N([C@@]1(C)CCN(C(=O)C(C)(C)N)C1)CC2
III: COc1ccc(-c2cc3c(C(=O)O)n[nH]c3cc2Cl)cc1
IV: O=C(NC1CC1)c1nc2cccnn2c1-c1ccc2ncnn2c1
V: CC(C)n1ncc2c1C(=O)CC1(CCN(C(=O)c3ccc4[nH]nc(C(N)=O)c4c3)CC1)C2
Order the entries by their reported fraction unbound at 6 h, 2 µM, beginning at the minimum. In your reply, arrange the labels in the requested order.
III, II, V, I, IV
(III: 0.0256, II: 0.0824, V: 0.121, I: 0.237, IV: 0.746)
